System: Miltenberger Antibody Positive Panel
assay.name: Reactivity of modified RBCs against the Miltenberger Antibody Positive Panel
Type: cell-based, human
Parameters: key: 0 or ‘−’ no agglutination; 0 or ‘−’ no agglutination; 1+ or 3=very weak agglutination; 1+ or 3=very weak agglutination; 2+ or 5=weak agglutination; 2+ or 5=weak agglutination; 3+ or 8=moderate strong agglutination; 3+ or 8=moderate strong agglutination; 4+ or 10/12=strong agglutination; 4+ or 10/12=strong agglutination; 4+ or 10/12=strong agglutination
condition.set: cells modified at 50 μg/ml, 2 hour 37° C.; BioVue AHG cards
No end group written: not given here.
result.type: agglutination score, Panel Serum #7 (T8445)
Just the number, please, no unit attached.

Known agglutination score, Panel Serum #7 (T8445) results, listed for orientation:
substance: M29: DOPE peptide-lipid construct: Mur peptide PAHTANEVS, leader c, spacer CMG(2) (PAHTANEVSC; also: DOPE peptide-lipid construct via leader Cys, spacer CMG(2))
obs.value: 8
//
substance: M28: DOPE peptide-lipid construct: Mur peptide TYPAHTANE, leader c, spacer CMG(2) (TYPAHTANEC; also: DOPE peptide-lipid construct via leader Cys, spacer CMG(2))
obs.value: 8
//
substance: M30: DOPE peptide-lipid construct: Mur peptide DTYPAHTANE, leader c, spacer CMG(2) (DTYPAHTANEC; also: DOPE peptide-lipid construct via leader Cys, spacer CMG(2))
obs.value: 8

Find the measured agglutination score, Panel Serum #7 (T8445) of M26: DOPE peptide-lipid construct: Mur peptide YPAHTANEV, leader c, spacer CMG(2) (YPAHTANEVC; also: DOPE peptide-lipid construct via leader Cys, spacer CMG(2)) and report it.
10

Find the measured agglutination score, Panel Serum #7 (T8445) of M19: DOPE peptide-lipid construct: Mur peptide PAHTANEV, leader c, spacer CMG(2) (PAHTANEVC; also: DOPE peptide-lipid construct via leader Cys, spacer CMG(2)) and report it.
8

Find the measured agglutination score, Panel Serum #7 (T8445) of M31: DOPE peptide-lipid construct: Mur peptide YPAHTANEVS, leader c, spacer CMG(2) (YPAHTANEVSC; also: DOPE peptide-lipid construct via leader Cys, spacer CMG(2)) and report it.
8

Find the measured agglutination score, Panel Serum #7 (T8445) of M17: DOPE peptide-lipid construct: Mur peptide TYPAHTANEV, leader c, spacer CMG(2) (TYPAHTANEVC; also: DOPE peptide-lipid construct via leader Cys, spacer CMG(2)) and report it.
10

###

We begin with a simple list: items and their reported Reactivity with anti-MUT serum TAP1.
Tested on: TAP1 serum (Taiwan Miltenberger antibody positive sample)
assay.name: Anti-MUT serum (TAP1) reactivity of modified RBCs (saline and AHG)
Type: cell-based, human
Parameters: key: 0 or ‘−’ no agglutination; 0 or ‘−’ no agglutination; 1+ or 3=very weak agglutination; 1+ or 3=very weak agglutination; 2+ or 5=weak agglutination; 2+ or 5=weak agglutination; 3+ or 8=moderate strong agglutination; 3+ or 8=moderate strong agglutination; 4+ or 10/12=strong agglutination; 4+ or 10/12=strong agglutination; 4+ or 10/12=strong agglutination
condition.set: construct 50 μg/ml (2 hours, 37° C.)
No end group written: not given here.
Just the number, please, no unit attached.

Known Reactivity with anti-MUT serum TAP1 results, listed for orientation:
substance: M37: DOPE peptide-lipid construct: MUTK peptide TNDKHKRDTYP, leader c, spacer CMG(2) (TNDKHKRDTYPC; also: DOPE peptide-lipid construct via leader Cys, spacer CMG(2))
obs.value: 8
--
substance: M35: DOPE peptide-lipid construct: MUTK peptide QTNDKHKRDT, leader c, spacer CMG(2) (QTNDKHKRDTC; also: DOPE peptide-lipid construct via leader Cys, spacer CMG(2))
obs.value: 5
--
substance: M33: DOPE peptide-lipid construct: MUTK peptide QTNDKHKRDTY, leader c, spacer CMG(2) (QTNDKHKRDTYC; also: DOPE peptide-lipid construct via leader Cys, spacer CMG(2))
obs.value: 3

Tell me its Reactivity with anti-MUT serum TAP1 on TAP1 serum (Taiwan Miltenberger antibody positive sample): M34: DOPE peptide-lipid construct: MUTK peptide SSQTNDKHKR, leader c, spacer CMG(2) (SSQTNDKHKRC; also: DOPE peptide-lipid construct via leader Cys, spacer CMG(2))
5

Tell me its Reactivity with anti-MUT serum TAP1 on TAP1 serum (Taiwan Miltenberger antibody positive sample): M22: DOPE peptide-lipid construct: MUTK peptide SQTNDKHKRD, leader c, spacer CMG(2) (SQTNDKHKRDC; also: DOPE peptide-lipid construct via leader Cys, spacer CMG(2))
8

Tell me its Reactivity with anti-MUT serum TAP1 on TAP1 serum (Taiwan Miltenberger antibody positive sample): M36: DOPE peptide-lipid construct: MUTK peptide SQTNDKHKRDT, leader c, spacer CMG(2) (SQTNDKHKRDTC; also: DOPE peptide-lipid construct via leader Cys, spacer CMG(2))
8
